# Tested on: B. amyloliquefaciens ART24
# Test Summary: Antibiotic MIC following EFSA testing recommendations on lyophilized ART24 lots and cell banks
# Assay type: cell-based, Bacillus amyloliquefaciens
# Assay Context: source CO-33 ART 24 BHI

Compound	MIC interpretation for ART24
CN(C)[C@@H]1C(O)=C(C(N)=O)C(=O)[C@@]2(O)C(O)=C3C(=O)c4c(O)cccc4[C@@](C)(O)[C@H]3C[C@@H]12 [Tetracycline]	S
NC[C@H]1O[C@H](O[C@H]2[C@H](O)[C@@H](O[C@H]3O[C@H](CO)[C@@H](O)[C@H](N)[C@H]3O)[C@H](N)C[C@@H]2N)[C@H](O)[C@@H](O)[C@@H]1O [Kanamycin]	S
CO[C@H]1/C=C/O[C@@]2(C)Oc3c(C)c(O)c4c(O)c(c(/C=N/N5CCN(C)CC5)c(O)c4c3C2=O)NC(=O)/C(C)=C\C=C\[C@H](C)[C@H](O)[C@@H](C)[C@@H](O)[C@@H](C)[C@H](OC(C)=O)[C@@H]1C [Rifampicin]	S
CC1(C)S[C@@H]2[C@H](NC(=O)[C@H](N)c3ccccc3)C(=O)N2[C@H]1C(=O)O [Ampicillin]	S
